Target: Heat shock protein HSP 90-alpha (Homo sapiens)
Assay type: functional, organism-based
Activity calls are given as the source filed them.
Give measured AC50 for each item. Keep answers brief.

Solved cases (5 shown):
INSERT INTO results (compound, assay_target, assay_readout, value_observed) VALUES
  ('Clc1nss/c1=N\c1ccc(Br)cc1', 'Heat shock protein HSP 90-alpha (Homo sapiens)', 'AC50', '24.4 µM (active)'),
  ('O=S(=O)(NC1CC2CCC1C2)c1ccc(Cl)cc1 (stereo not drawn)', 'Heat shock protein HSP 90-alpha (Homo sapiens)', 'AC50', '0.538 µM (active)'),
  ('N#C/C(=C\c1ccc([N+](=O)[O-])o1)C(=O)Nc1ccc(F)cc1', 'Heat shock protein HSP 90-alpha (Homo sapiens)', 'AC50', '0.444 µM (active)'),
  ('O=C(Nc1nc(-c2ccccn2)cs1)c1cc2ccccc2o1', 'Heat shock protein HSP 90-alpha (Homo sapiens)', 'AC50', '4.49 µM (active)'),
  ('O=C1NC(=S)S/C1=C\c1cc2ccccc2nc1N1CCCCC1', 'Heat shock protein HSP 90-alpha (Homo sapiens)', 'AC50', '3.98 µM (active)');

Hi there! I need AC50 for each item below, if you can.
1. O=[N+]([O-])c1cc(CN2CCN(c3cccc(C(F)(F)F)c3)CC2)c2cccnc2c1O
2. Cc1ccc2nc(-c3cccc(NS(C)(=O)=O)c3)cc(-c3ccccc3)c2c1

OUTPUT:
["3.53 µM (active)", "4.75 µM (active)"]

INPUT: Note down AC50 recorded for COc1ccc(NC(=O)CCC(=O)N/N=C/c2ccc([N+](=O)[O-])s2)cc1
OUTPUT: 2.7 µM (active)
